Target: Fibroblast growth factor receptor 3 (Homo sapiens) (UniProt P22607)
Sequence (P22607 23-806 limits assumed): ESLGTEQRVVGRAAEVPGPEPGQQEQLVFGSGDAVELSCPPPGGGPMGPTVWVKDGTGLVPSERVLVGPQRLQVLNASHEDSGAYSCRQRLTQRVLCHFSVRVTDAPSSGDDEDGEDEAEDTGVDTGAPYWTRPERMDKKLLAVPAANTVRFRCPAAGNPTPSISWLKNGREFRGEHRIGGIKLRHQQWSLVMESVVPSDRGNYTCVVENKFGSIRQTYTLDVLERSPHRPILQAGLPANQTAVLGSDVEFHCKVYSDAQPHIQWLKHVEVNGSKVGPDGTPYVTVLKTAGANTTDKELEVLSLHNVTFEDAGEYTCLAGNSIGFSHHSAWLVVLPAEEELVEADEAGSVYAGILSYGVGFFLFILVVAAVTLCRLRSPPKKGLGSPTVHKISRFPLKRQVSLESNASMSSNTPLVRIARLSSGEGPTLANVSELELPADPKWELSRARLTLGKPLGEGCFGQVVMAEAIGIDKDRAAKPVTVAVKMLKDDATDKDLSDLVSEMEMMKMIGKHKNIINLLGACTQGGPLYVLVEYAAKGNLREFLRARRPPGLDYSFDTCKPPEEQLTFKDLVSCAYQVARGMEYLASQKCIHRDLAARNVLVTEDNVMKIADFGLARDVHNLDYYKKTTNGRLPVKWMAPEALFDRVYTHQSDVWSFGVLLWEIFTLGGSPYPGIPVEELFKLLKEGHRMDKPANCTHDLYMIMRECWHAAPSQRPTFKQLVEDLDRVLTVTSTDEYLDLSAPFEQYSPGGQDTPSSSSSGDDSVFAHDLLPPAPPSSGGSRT
Conditions: at 1 µM
This section presents molecules with their documented residual activity values.
MEASURED PROPERTY: residual activity (%)

structure_smiles=N#Cc1cnc2cnc(NCc3cccnc3)cc2c1Nc1ccc(F)c(Cl)c1 measured_property="residual activity" unit_spec=% numeric_value=38
structure_smiles=COc1cc2ncnc(Nc3ccc(Oc4ccccc4)cc3)c2cc1OC measured_property="residual activity" unit_spec=% numeric_value=78
structure_smiles=Nc1cccc(-c2cc3c(Oc4cccc(O)c4)ncnc3[nH]2)c1 measured_property="residual activity" unit_spec=% numeric_value=53
structure_smiles=COc1ccc(C(=O)Nc2sc3c(c2C(N)=O)CCCC3)cc1OC measured_property="residual activity" unit_spec=% numeric_value=104
structure_smiles=CC(C)n1cnc2/c(=N/c3cccc(Cl)c3)nc(NCCO)[nH]c21 measured_property="residual activity" unit_spec=% numeric_value=106
structure_smiles=COc1ccc(OC)c2c(=S)c3ccccc3[nH]c12 measured_property="residual activity" unit_spec=% numeric_value=129
structure_smiles=CCC(=O)Nc1ccc2ncnc(Nc3cccc(Br)c3)c2c1 measured_property="residual activity" unit_spec=% numeric_value=118
structure_smiles=Cc1cc(Nc2nc(-c3ccccc3)nc3ccccc23)n[nH]1 measured_property="residual activity" unit_spec=% numeric_value=34
structure_smiles=CCN(CC)C(=O)c1ccc(Nc2nc(OCC3CCCCC3)c3nc[nH]c3n2)cc1 measured_property="residual activity" unit_spec=% numeric_value=49
structure_smiles=Oc1n[nH]c2nnc(-c3c(-c4ccccc4)nn4ccccc34)cc12 measured_property="residual activity" unit_spec=% numeric_value=97
structure_smiles=Cn1cnc2cc3c(Nc4cccc(Br)c4)ncnc3cc21 measured_property="residual activity" unit_spec=% numeric_value=102

###

Biological target: Serine/threonine-protein kinase Chk1 (Homo sapiens) (UniProt O14757)
Sequence (O14757 whole entry): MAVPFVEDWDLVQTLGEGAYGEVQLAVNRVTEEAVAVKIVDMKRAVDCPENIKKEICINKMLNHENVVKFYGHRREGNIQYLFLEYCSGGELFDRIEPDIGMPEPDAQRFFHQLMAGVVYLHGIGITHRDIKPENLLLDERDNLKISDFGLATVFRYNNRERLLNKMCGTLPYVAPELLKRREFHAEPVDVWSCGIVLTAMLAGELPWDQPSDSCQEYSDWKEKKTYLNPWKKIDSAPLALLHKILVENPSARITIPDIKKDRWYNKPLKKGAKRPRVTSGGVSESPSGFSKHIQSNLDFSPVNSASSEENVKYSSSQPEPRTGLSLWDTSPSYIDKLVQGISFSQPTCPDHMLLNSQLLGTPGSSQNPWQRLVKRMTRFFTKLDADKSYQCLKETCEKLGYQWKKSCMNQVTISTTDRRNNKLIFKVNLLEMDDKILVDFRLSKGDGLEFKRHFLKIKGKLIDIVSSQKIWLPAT
Conditions: at 1 µM
This section presents molecules with their documented residual activity values.
MEASURED PROPERTY: residual activity (%)

structure_smiles=O=C1NC(=O)c2cc(Nc3ccc(F)cc3)c(Nc3ccc(F)cc3)cc21 numeric_value=85
structure_smiles=COc1ccc(CNc2nc(N(CCO)CCO)nc3c2ncn3C(C)C)cc1 numeric_value=93
structure_smiles=COc1cccc(-c2cc(=O)c3ccccc3o2)c1N numeric_value=104
structure_smiles=CN(C)c1ccc(/C=C2\C(=O)Nc3ccccc32)cc1 numeric_value=90
structure_smiles=Cn1cnc2cc3c(Nc4cccc(Br)c4)ncnc3cc21 numeric_value=95
structure_smiles=Nc1ccc2ncnc(NCCc3ccc(Oc4ccccc4)cc3)c2c1 numeric_value=94

###

Biological target: Angiopoietin-1 receptor (Homo sapiens) (UniProt Q02763)
Sequence (Q02763 whole entry): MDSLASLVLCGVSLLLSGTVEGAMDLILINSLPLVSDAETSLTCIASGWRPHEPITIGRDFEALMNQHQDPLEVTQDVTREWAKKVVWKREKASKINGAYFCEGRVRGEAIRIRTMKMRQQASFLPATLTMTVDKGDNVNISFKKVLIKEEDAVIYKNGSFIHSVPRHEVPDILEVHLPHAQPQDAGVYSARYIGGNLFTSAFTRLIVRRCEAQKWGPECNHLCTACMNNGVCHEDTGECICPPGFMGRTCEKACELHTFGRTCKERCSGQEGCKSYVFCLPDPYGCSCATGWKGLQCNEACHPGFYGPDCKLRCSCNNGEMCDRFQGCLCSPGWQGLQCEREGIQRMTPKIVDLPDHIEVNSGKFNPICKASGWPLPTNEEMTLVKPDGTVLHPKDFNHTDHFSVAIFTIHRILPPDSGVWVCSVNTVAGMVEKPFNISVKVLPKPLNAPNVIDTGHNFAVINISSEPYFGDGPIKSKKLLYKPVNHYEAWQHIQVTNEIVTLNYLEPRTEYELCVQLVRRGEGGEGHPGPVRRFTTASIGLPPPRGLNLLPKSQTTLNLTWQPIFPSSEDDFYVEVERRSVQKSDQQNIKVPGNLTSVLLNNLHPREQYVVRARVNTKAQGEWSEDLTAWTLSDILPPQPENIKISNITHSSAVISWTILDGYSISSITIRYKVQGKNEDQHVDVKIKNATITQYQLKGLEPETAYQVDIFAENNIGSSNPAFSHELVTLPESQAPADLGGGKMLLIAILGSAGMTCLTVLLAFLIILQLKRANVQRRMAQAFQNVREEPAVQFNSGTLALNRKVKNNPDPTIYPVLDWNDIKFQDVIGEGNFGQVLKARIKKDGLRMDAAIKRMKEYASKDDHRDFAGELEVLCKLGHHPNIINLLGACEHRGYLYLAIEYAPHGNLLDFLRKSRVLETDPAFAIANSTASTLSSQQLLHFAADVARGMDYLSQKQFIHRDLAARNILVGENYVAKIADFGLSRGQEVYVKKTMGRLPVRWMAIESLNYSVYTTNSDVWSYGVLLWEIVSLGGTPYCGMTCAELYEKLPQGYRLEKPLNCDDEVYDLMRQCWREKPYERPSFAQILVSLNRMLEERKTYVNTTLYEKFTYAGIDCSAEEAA
Conditions: at 1 µM
MEASURED PROPERTY: residual activity (%)

structure_smiles=Cn1cnc2cc3c(Nc4cccc(Br)c4)ncnc3cc21 system_tested="Angiopoietin-1 receptor (Homo sapiens) (UniProt Q02763)" numeric_value=74
structure_smiles=Cc1ccc(S(=O)(=O)/C=C/C#N)cc1 system_tested="Angiopoietin-1 receptor (Homo sapiens) (UniProt Q02763)" numeric_value=115
structure_smiles=C[C@@H](N)[C@H]1CC[C@H](C(=O)Nc2ccncc2)CC1 system_tested="Angiopoietin-1 receptor (Homo sapiens) (UniProt Q02763)" numeric_value=84
structure_smiles=COc1ccc(OC)c2c(=S)c3ccccc3[nH]c12 system_tested="Angiopoietin-1 receptor (Homo sapiens) (UniProt Q02763)" numeric_value=94
structure_smiles=O=C1NC(=O)c2cc(Nc3ccc(F)cc3)c(Nc3ccc(F)cc3)cc21 system_tested="Angiopoietin-1 receptor (Homo sapiens) (UniProt Q02763)" numeric_value=70
structure_smiles=CO[C@@H]1[C@H](N(C)C(=O)c2ccccc2)C[C@H]2O[C@]1(C)n1c3ccccc3c3c4c(c5c6ccccc6n2c5c31)C(=O)NC4 system_tested="Angiopoietin-1 receptor (Homo sapiens) (UniProt Q02763)" numeric_value=133
structure_smiles=Oc1ccc(-c2nc(-c3ccc(F)cc3)c(-c3ccncc3)[nH]2)cc1 system_tested="Angiopoietin-1 receptor (Homo sapiens) (UniProt Q02763)" numeric_value=109
structure_smiles=CCN(CC)CCCCN1c2ccccc2Oc2ccc(Cl)cc21 system_tested="Angiopoietin-1 receptor (Homo sapiens) (UniProt Q02763)" numeric_value=105
structure_smiles=Cc1cc(Nc2nc(-c3ccccc3)nc3ccccc23)n[nH]1 system_tested="Angiopoietin-1 receptor (Homo sapiens) (UniProt Q02763)" numeric_value=77
structure_smiles=c1ccc2c(-c3ccncc3)c[nH]c2c1 system_tested="Angiopoietin-1 receptor (Homo sapiens) (UniProt Q02763)" numeric_value=77
structure_smiles=Ic1cccc(CSc2nnc(-c3ccncc3)o2)c1 system_tested="Angiopoietin-1 receptor (Homo sapiens) (UniProt Q02763)" numeric_value=104
structure_smiles=Cc1ccc(NC2=CC(=O)c3sc(C)nc3C2=O)cc1 system_tested="Angiopoietin-1 receptor (Homo sapiens) (UniProt Q02763)" numeric_value=100
structure_smiles=Nc1nc(Nc2ccc(S(N)(=O)=O)cc2)nn1C(=S)Nc1c(F)cccc1F system_tested="Angiopoietin-1 receptor (Homo sapiens) (UniProt Q02763)" numeric_value=-1
structure_smiles=Oc1c2ccccc2c2c3c(cccc13)N=N2 system_tested="Angiopoietin-1 receptor (Homo sapiens) (UniProt Q02763)" numeric_value=95
structure_smiles=O=C(O)c1ccc2c3c1cccc3c(=O)n1c3ccccc3nc21 system_tested="Angiopoietin-1 receptor (Homo sapiens) (UniProt Q02763)" numeric_value=106
structure_smiles=COc1ccc(S(=O)(=O)N(CCO)c2ccccc2CN(C)C/C=C/c2ccc(Cl)cc2)cc1 system_tested="Angiopoietin-1 receptor (Homo sapiens) (UniProt Q02763)" numeric_value=118
structure_smiles=Nc1ccc2ncnc(NCCc3ccc(Oc4ccccc4)cc3)c2c1 system_tested="Angiopoietin-1 receptor (Homo sapiens) (UniProt Q02763)" numeric_value=114
structure_smiles=Cc1nc(-c2ccccc2)c(-c2ccncc2)o1 system_tested="Angiopoietin-1 receptor (Homo sapiens) (UniProt Q02763)" numeric_value=100
structure_smiles=Nc1n[nH]c2nnc(-c3c(-c4ccccc4)nn4ccccc34)cc12 system_tested="Angiopoietin-1 receptor (Homo sapiens) (UniProt Q02763)" numeric_value=94
structure_smiles=CN(C)c1ccc(/C=C2\C(=O)Nc3ccccc32)cc1 system_tested="Angiopoietin-1 receptor (Homo sapiens) (UniProt Q02763)" numeric_value=83
structure_smiles=O=c1cc(-c2cccc3c2Sc2ccccc2S3)oc(N2CCOCC2)c1 system_tested="Angiopoietin-1 receptor (Homo sapiens) (UniProt Q02763)" numeric_value=101
structure_smiles=O=C1NC(=O)/C(=C/c2ccc3c(c2)OC(F)(F)O3)S1 system_tested="Angiopoietin-1 receptor (Homo sapiens) (UniProt Q02763)" numeric_value=94
structure_smiles=O=C1Nc2ccc(Br)cc2/C1=C\c1cc2c([nH]1)CCCC2 system_tested="Angiopoietin-1 receptor (Homo sapiens) (UniProt Q02763)" numeric_value=110

###

Target: Serine/threonine-protein kinase 24 (Homo sapiens)
Settings: at 1 µM
MEASURED PROPERTY: residual activity (%)

structure_smiles=COc1cccc(-c2cc(=O)c3ccccc3o2)c1N system_tested="Serine/threonine-protein kinase 24 (Homo sapiens)" numeric_value=91
structure_smiles=CCOc1cc2ncnc(Nc3cccc(Br)c3)c2cc1OCC system_tested="Serine/threonine-protein kinase 24 (Homo sapiens)" numeric_value=61
structure_smiles=COc1cc2ncnc(N3CCN(C(=O)Nc4ccc(Oc5ccccc5)cc4)CC3)c2cc1OC system_tested="Serine/threonine-protein kinase 24 (Homo sapiens)" numeric_value=98
structure_smiles=Oc1c2ccccc2c2c3c(cccc13)N=N2 system_tested="Serine/threonine-protein kinase 24 (Homo sapiens)" numeric_value=57
structure_smiles=CC#CC(=O)Nc1cc2c(Nc3ccc(F)c(Cl)c3)ncnc2cn1 system_tested="Serine/threonine-protein kinase 24 (Homo sapiens)" numeric_value=71
structure_smiles=CNc1cc2c(Nc3cccc(Br)c3)ncnc2cn1 system_tested="Serine/threonine-protein kinase 24 (Homo sapiens)" numeric_value=76

###

Target: Ribosomal protein S6 kinase alpha-5 (Homo sapiens)
Settings: at 10 µM
MEASURED PROPERTY: residual activity (%)

structure_smiles=O=C1NC(=O)c2cc(Nc3ccc(F)cc3)c(Nc3ccc(F)cc3)cc21 measured_property="residual activity" unit_spec=% numeric_value=93
structure_smiles=Oc1n[nH]c2nnc(-c3c(-c4ccccc4)nn4ccccc34)cc12 measured_property="residual activity" unit_spec=% numeric_value=111
structure_smiles=CO[C@H]1C[C@@H]2CC[C@@H](C)[C@@](O)(O2)C(=O)C(=O)N2CCCC[C@H]2C(=O)O[C@H]([C@H](C)C[C@@H]2CC[C@@H](O)[C@H](OC)C2)CC(=O)[C@H](C)/C=C(\C)[C@@H](O)[C@@H](OC)C(=O)[C@H](C)C[C@H](C)/C=C/C=C/C=C/1C measured_property="residual activity" unit_spec=% numeric_value=110
structure_smiles=Cc1ccc(NC2=CC(=O)c3sc(C)nc3C2=O)cc1 measured_property="residual activity" unit_spec=% numeric_value=113
structure_smiles=Oc1c2ccccc2c2c3c(cccc13)N=N2 measured_property="residual activity" unit_spec=% numeric_value=69
structure_smiles=CO[C@@H]1[C@H](N(C)C(=O)c2ccccc2)C[C@H]2O[C@]1(C)n1c3ccccc3c3c4c(c5c6ccccc6n2c5c31)C(=O)NC4 measured_property="residual activity" unit_spec=% numeric_value=8
structure_smiles=O=C(Nc1cccc(Nc2cc(Nc3cccc(C(F)(F)F)c3)ncn2)c1)C1CC1 measured_property="residual activity" unit_spec=% numeric_value=107
structure_smiles=COc1cc2ncnc(Nc3ccc(Oc4ccccc4)cc3)c2cc1OC measured_property="residual activity" unit_spec=% numeric_value=129

Value source: ChEMBL document CHEMBL2218924
